Biological target: T1, human MSLN-hFc protein (Acro, Cat. No. MSN-H5253) (human, UniProt Q13421 296-580)
T1 construct: the method names the coated protein as human MSLN-hFc (Acro); also called human MSLN full-length protein
T1 sequence (Q13421 other isoform, or with tags, fused parts or gaps limits assumed): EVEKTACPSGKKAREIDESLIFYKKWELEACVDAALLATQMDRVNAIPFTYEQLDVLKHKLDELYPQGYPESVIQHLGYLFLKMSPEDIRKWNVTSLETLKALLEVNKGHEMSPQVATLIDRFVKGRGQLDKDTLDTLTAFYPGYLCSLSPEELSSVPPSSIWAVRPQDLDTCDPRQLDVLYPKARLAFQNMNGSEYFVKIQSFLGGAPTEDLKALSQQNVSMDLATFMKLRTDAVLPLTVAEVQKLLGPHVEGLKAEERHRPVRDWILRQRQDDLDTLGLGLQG
Experiment: ELISA on coated antigen, antibody 0.1 nM
Property: OD450; scope: individual binders
# output: bare number, implied unit OD450

Below are worked cases with known answers.
[
  {
    "Binder": "F7.33.24-H5 (scFv, not shown: small tags and cut ends, also called S009-F7.33.24 humanized antibody VH1a + VL2) scFv: EVQLVQSGAEVKKPGASVKVSCKASGYTFTSYWMHWVRQAPGQRLEWMGNVNPSSGGSNYNEKFKNRVTITVDKSASTAYMELSSLRSEDTAVYYCAPHYIGSRPGFAYWGQGTLVTVSSGGGGSGGGGSGGGGSDIVMTQTPLSLSVTPGQPASISCKASQNVGTNIAWYLQKPGQSPQALIYSASYRYSGVPDRFSGSGSGTDFTLKISRVEAEDVGVYYCQQYNSYPLTFGGGTKVEIK",
    "Quantitative Readout": 0.07
  },
  {
    "Binder": "F7.33.24-H12 (scFv, not shown: small tags and cut ends, also called S009-F7.33.24 humanized antibody VH2a + VL3) scFv: EVQLVQSGAEVKKPGASVKVSCKASGYTFTSYWMHWVRQAPGQGLEWMGNVNPSNAGSNYNEKFKNRVTITVDKSASTAYMELSSLRSEDTAVYYCAPHYIGSRPGFAYWGQGTLVTVSSGGGGSGGGGSGGGGSDIVMTQTPLSLSVTPGQPASISCKASQNVGTNIAWYQQKPGQSPQALIYSASYRYSGVPDRFSGSGSGTDFTLKISRVEAEDVGVYYCQQYNSYPLTFGGGTKVEIK",
    "Quantitative Readout": 0.1
  }
]

(Q) Entry under review: F7.33.24-H11 (scFv, not shown: small tags and cut ends, also called S009-F7.33.24 humanized antibody VH2a + VL2) scFv: EVQLVQSGAEVKKPGASVKVSCKASGYTFTSYWMHWVRQAPGQGLEWMGNVNPSNAGSNYNEKFKNRVTITVDKSASTAYMELSSLRSEDTAVYYCAPHYIGSRPGFAYWGQGTLVTVSSGGGGSGGGGSGGGGSDIVMTQTPLSLSVTPGQPASISCKASQNVGTNIAWYLQKPGQSPQALIYSASYRYSGVPDRFSGSGSGTDFTLKISRVEAEDVGVYYCQQYNSYPLTFGGGTKVEIK . Reported OD450?
(A) 0.09

(Q) Entry under review: F7.33.24-H7 (scFv, not shown: small tags and cut ends, also called S009-F7.33.24 humanized antibody VH2 + VL1) scFv: EVQLVQSGAEVKKPGASVKVSCKASGYTFTSYWMHWVRQAPGQGLEWMGNVNPSNGGSNYNEKFKNRVTITVDKSASTAYMELSSLRSEDTAVYYCAPHYIGSRPGFAYWGQGTLVTVSSGGGGSGGGGSGGGGSDIVMTQSPDSLAVSLGERATINCKASQNVGTNIAWYQQKPGQSPKALIYSASYRYSGVPDRFSGSGSGTDFTLTISSLQAEDVAVYYCQQYNSYPLTFGGGTKVEIK . Reported OD450?
(A) 0.1

(Q) Entry under review: F7.33.24-H8 (scFv, not shown: small tags and cut ends, also called S009-F7.33.24 humanized antibody VH2 + VL2) scFv: EVQLVQSGAEVKKPGASVKVSCKASGYTFTSYWMHWVRQAPGQGLEWMGNVNPSNGGSNYNEKFKNRVTITVDKSASTAYMELSSLRSEDTAVYYCAPHYIGSRPGFAYWGQGTLVTVSSGGGGSGGGGSGGGGSDIVMTQTPLSLSVTPGQPASISCKASQNVGTNIAWYLQKPGQSPQALIYSASYRYSGVPDRFSGSGSGTDFTLKISRVEAEDVGVYYCQQYNSYPLTFGGGTKVEIK . Reported OD450?
(A) 0.09
